Where do these numbers come from? They come from patent US20230242544A1.

target: recombinant human KRAS^G12D protein (Homo sapiens, UniProt P01116, G12D); test: Temperature-dependent Fluorescence (TdF) KRAS G12D protein binding assay; conditions: 6 μM KRAS^G12D protein, 10 μM compound, Sypro Orange; Kd calculated from the fluorescent shift
Sequence (P01116 1-188 isoform P01116-2 G12D): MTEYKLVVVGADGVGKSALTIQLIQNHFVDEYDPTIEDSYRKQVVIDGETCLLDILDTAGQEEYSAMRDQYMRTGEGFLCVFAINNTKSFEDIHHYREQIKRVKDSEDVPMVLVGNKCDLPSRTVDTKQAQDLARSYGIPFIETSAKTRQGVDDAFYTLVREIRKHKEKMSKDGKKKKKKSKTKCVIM
pKd: −log10 of the molar value.
measurement_kind: pKd

>  <molecule>
Cc1cc(N)nc(-c2c(Cl)cc3c(N4CC5CCC(C4)N5)nc(OC[C@@H]4CCCN4C)nc3c2F)c1 [Compound 130]

>  <measurement_kind>
pKd

>  <reported_result>
< 5.30

$$$$
>  <molecule>
CN(C)CCCOc1nc(N2CC3CCC(C2)N3)c2cc(Cl)c(-c3cc(O)cc4ccccc34)c(F)c2n1 [Compound 5]

>  <measurement_kind>
pKd

>  <reported_result>
5.30 to 6.30

$$$$
>  <molecule>
C#Cc1c(F)ccc2cc(O)cc(-c3c(Cl)cc4c(N5CC6CCC(C5)N6)nc(OC[C@@]56CCCN5C[C@H](F)C6)nc4c3F)c12 [Compound 146]

>  <measurement_kind>
pKd

>  <reported_result>
> 6.30

$$$$
>  <molecule>
Oc1cc(-c2c(Cl)cc3c(N4CC5CCC(C4)N5)nc(OCC45CCCN4CC(F)(F)C5)nc3c2F)c2ccccc2c1 (centres unmarked) [Compound 81]

>  <measurement_kind>
pKd

>  <reported_result>
> 6.30

$$$$
>  <molecule>
CN1CCC2(CC1)CCN(c1nc(N3CC4CCC(C3)N4)c3cc(Cl)c(-c4cc(O)cc5ccccc45)c(F)c3n1)C2 [Compound 41]

>  <measurement_kind>
pKd

>  <reported_result>
< 5.30

$$$$
>  <molecule>
CN1CC2(CCN(c3nc(N4CC5CCC(C4)N5)c4cc(Cl)c(-c5cc(O)cc6ccccc56)c(F)c4n3)CC2)C1 [Compound 45]

>  <measurement_kind>
pKd

>  <reported_result>
< 5.30

$$$$
>  <molecule>
N#Cc1cc2c(N3CC4CCC(C3)N4)nc(OCC34CCCN3CCC4)nc2c(F)c1-c1cc(O)cc2ccccc12 [Compound 73]

>  <measurement_kind>
pKd

>  <reported_result>
> 6.30

$$$$
>  <molecule>
Cc1ccc2[nH]ncc2c1-c1c(C#N)cc2c(N3CC4CCC(C3)N4)nc(OC[C@@]34CCCN3C[C@H](F)C4)nc2c1F [Compound 92]

>  <measurement_kind>
pKd

>  <reported_result>
> 6.30

$$$$
>  <molecule>
Nc1nc2c(-c3c(Cl)cc4c(N5CC6CCC(C5)N6)ncnc4c3F)ccc(F)c2s1 [Compound 140]

>  <measurement_kind>
pKd

>  <reported_result>
5.30 to 6.30

$$$$
>  <molecule>
Cc1cccc2cccc(-c3c(C#N)cc4c(N5CC6CCC(C5)N6)nc(OC[C@@]56CCCN5C[C@H](F)C6)nc4c3F)c12 [Compound 87]

>  <measurement_kind>
pKd

>  <reported_result>
5.30 to 6.30

$$$$
>  <molecule>
Oc1cc(-c2c(Cl)cc3c(N4CC5CCC(C4)N5)nc(OCC45CCCN4CCC5)nc3c2F)c2c(Cl)c(F)ccc2c1 [Compound 71]

>  <measurement_kind>
pKd

>  <reported_result>
> 6.30

$$$$
>  <molecule>
CN(C)C1CCN(c2nc(N3CC4CCC(C3)N4)c3cc(Cl)c(-c4cc(O)cc5ccccc45)c(F)c3n2)CC1 [Compound 54]

>  <measurement_kind>
pKd

>  <reported_result>
< 5.30

$$$$
>  <molecule>
Cc1cc(N)nc(-c2c(Cl)cc3c(N4CCN[C@@H](CC#N)C4)nc(OC[C@@H]4C[C@@H](F)CN4C)nc3c2F)c1C(F)(F)F [Compound 135]

>  <measurement_kind>
pKd

>  <reported_result>
< 5.30

$$$$
>  <molecule>
CC(C)N1CCC(Oc2nc(N3CC4CCC(C3)N4)c3cc(Cl)c(-c4cc(O)cc5ccccc45)c(F)c3n2)C1 (centres unmarked) [Compound 84]

>  <measurement_kind>
pKd

>  <reported_result>
< 5.30

$$$$
